- testedSystem: recombinant human PARP (Homo sapiens)
- measurementProtocol: Measurement of PARP enzymatic activity (transfer of radiolabeled ADP-ribose from NAD+ to protein acceptor)
- Type: biochemical
- particulars: Table 1; read-out: PARP IC50
Counter-ions that a name gives are not always drawn.

compound	unit	IC50
O=C1c2c3c(c4[nH]c5ccccc5c4c2C(=O)N1CCCO)CCC3	nM	946
CC(C)(C)OC(=O)NCCCC[C@H](NC(=O)OC(C)(C)C)C(=O)n1c2ccccc2c2c3c(c4c(c21)CCC4)C(=O)NC3	nM	1500
O=C1NC(=O)c2c1c1c(c3[nH]c4ccccc4c23)CCC1	nM	36
O=C1c2c3c(c4[nH]c5ccccc5c4c2C(=O)N1S(=O)(=O)c1ccccc1)CCC3	nM	250
CCN(CC)CCCN1C(=O)c2c3c(c4[nH]c5ccccc5c4c2C1=O)CCC3	nM	819
NCCCC[C@H](N)C(=O)n1c2ccccc2c2c3c(c4c(c21)CCC4)C(=O)NC3 [Compound 1v, dihydrochloride]	nM	1400
NCCC(=O)N1C(=O)c2c3c(c4[nH]c5ccccc5c4c2C1=O)CCC3	nM	160
O=C1c2c3c(c4[nH]c5ccccc5c4c2C(=O)N1CCOCc1ccccc1)CCC3	nM	1600
NCC(=O)N1C(=O)c2c3c(c4[nH]c5ccccc5c4c2C1=O)CCC3	nM	38

###

- testedSystem: MLK3 (Homo sapiens, UniProt Q16584)
- Construct: 2 μg/mL of baculoviral human GST-MLK1 kinase domain; GST (N); host or cells: baculovirus expression
- Sequence (Q16584 117-379 limits assumed): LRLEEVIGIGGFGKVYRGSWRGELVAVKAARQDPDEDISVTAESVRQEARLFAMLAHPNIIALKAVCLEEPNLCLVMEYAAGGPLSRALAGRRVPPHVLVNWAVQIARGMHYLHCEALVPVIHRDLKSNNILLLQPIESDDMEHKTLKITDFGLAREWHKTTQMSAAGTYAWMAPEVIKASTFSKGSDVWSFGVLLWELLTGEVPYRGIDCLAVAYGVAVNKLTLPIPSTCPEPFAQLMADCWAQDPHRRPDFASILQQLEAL
- measurementProtocol: Measurement of MLK3 enzymatic activity (32P phosphorylation of myelin basic protein)
- Format: biochemical
- particulars: percent inhibition at 1 μM; Table 5
Assign class by MLK3 % @ 1 μM: not lower than 40% means true; lower than 40% means false.

compound	discreteLabel
O=C1NC(=O)c2c1c1occc1c1[nH]c3ccccc3c21 [Compound 11g]	false
O=C1NC(=O)c2c1c1c(c3[nH]c4ccccc4c23)CCCC1 [Compound 11b]	false
Cn1c2ccccc2c2c3c(c4c(c21)CCCC4)C(=O)NC3=O [Compound 11d]	true
O=C1NC(=O)c2c1c1cnccc1c1[nH]c3ccccc3c21 [Compound 12a]	true
O=C1NC(=O)c2c1c1ccccc1c1[nH]c3ccccc3c21 [Compound 11e]	false
O=C1NC(=O)c2c1c1c(c3[nH]c4ccccc4c23)CCO1 [Compound 11f]	true

###

- testedSystem: recombinant human PARP (Homo sapiens, UniProt P09874)
- Sequence (P09874 whole entry): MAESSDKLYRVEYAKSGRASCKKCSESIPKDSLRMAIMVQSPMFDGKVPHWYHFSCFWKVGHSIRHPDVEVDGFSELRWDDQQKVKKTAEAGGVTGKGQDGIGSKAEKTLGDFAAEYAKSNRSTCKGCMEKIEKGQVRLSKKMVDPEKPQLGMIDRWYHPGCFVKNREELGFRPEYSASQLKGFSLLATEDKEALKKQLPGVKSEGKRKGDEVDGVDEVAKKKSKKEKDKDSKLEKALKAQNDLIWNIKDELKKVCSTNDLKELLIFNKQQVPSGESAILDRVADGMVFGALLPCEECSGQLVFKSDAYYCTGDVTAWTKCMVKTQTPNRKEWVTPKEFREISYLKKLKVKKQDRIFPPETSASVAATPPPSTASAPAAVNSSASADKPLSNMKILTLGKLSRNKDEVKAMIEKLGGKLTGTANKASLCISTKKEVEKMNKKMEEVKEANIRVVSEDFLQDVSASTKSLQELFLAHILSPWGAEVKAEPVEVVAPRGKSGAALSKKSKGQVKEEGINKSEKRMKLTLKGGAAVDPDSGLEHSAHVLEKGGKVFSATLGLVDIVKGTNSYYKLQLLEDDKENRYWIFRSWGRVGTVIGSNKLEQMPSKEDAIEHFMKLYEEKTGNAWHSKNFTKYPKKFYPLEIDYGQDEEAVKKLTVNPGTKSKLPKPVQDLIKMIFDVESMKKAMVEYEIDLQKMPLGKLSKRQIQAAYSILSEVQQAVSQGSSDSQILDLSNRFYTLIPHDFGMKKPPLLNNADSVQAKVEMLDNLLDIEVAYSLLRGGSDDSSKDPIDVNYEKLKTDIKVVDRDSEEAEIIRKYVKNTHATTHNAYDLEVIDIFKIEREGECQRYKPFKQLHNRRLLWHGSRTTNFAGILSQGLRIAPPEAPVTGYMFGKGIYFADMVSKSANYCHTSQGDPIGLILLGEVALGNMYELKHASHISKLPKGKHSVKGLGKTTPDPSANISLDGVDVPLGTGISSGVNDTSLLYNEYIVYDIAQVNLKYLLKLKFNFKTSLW
- measurementProtocol: Measurement of PARP enzymatic activity (transfer of radiolabeled ADP-ribose from NAD+ to protein acceptor)
- Assay type: biochemical
- particulars: Table 2; read-out: PARP IC50
Criterion: IC50 strictly less than 20 nM. Met: 1.0. Not met: 0.0.

molecule	discreteLabel
O=CNCc1ccc2[nH]c3c4c(c5c(c3c2c1)C(=O)NC5=O)CCC4	0.0
CCCC(=O)NCc1nc(-c2ccc3[nH]c4c5c(c6c(c4c3c2)C(=O)NC6=O)CCC5)cs1	0.0
CNc1nc(-c2ccc3[nH]c4c5c(c6c(c4c3c2)C(=O)NC6=O)CCC5)cs1	0.0
NCc1nc(-c2ccc3[nH]c4c5c(c6c(c4c3c2)C(=O)NC6=O)CCC5)cs1	0.0
O=C(NCCN1CCOCC1)c1ccc2[nH]c3c4c(c5c(c3c2c1)C(=O)NC5=O)CCC4	0.0
CN1CCN(CC(=O)c2ccc3[nH]c4c5c(c6c(c4c3c2)C(=O)NC6=O)CCC5)CC1	1.0
O=C1NC(=O)c2c1c1c(c3[nH]c4ccc(-c5csc(NC6OC(CO)C(O)C(O)C6O)n5)cc4c23)CCC1 (centres unmarked)	1.0
CC(C)(C)OC(=O)[C@@H]1CCCN1CC(=O)c1ccc2[nH]c3c4c(c5c(c3c2c1)C(=O)NC5=O)CCC4	1.0
